- experimental_target: human CFTR channel endogenously expressed in Calu-3 (Homo sapiens, UniProt P13569)
- Construct: human pulmonary epithelial cells endogenously expressing the CFTR channel; host or cells: Calu-3 human pulmonary epithelial cells
- procedure_details: iodide efflux in Calu-3 human bronchial epithelial cells
- Type: cell-based
- measurement_context: Calu-3 cells, in the presence of FSK (1 μM); read-out: half-effect concentration (EC50)

{"columns": ["compound", "EC50 [µM]"],
 "data": [
  ["CCCCCCCCO [octan-1-ol]", 512]
]}

====

- experimental_target: CFTR channel (Homo sapiens, UniProt P13569)
- Sequence (P13569 whole entry): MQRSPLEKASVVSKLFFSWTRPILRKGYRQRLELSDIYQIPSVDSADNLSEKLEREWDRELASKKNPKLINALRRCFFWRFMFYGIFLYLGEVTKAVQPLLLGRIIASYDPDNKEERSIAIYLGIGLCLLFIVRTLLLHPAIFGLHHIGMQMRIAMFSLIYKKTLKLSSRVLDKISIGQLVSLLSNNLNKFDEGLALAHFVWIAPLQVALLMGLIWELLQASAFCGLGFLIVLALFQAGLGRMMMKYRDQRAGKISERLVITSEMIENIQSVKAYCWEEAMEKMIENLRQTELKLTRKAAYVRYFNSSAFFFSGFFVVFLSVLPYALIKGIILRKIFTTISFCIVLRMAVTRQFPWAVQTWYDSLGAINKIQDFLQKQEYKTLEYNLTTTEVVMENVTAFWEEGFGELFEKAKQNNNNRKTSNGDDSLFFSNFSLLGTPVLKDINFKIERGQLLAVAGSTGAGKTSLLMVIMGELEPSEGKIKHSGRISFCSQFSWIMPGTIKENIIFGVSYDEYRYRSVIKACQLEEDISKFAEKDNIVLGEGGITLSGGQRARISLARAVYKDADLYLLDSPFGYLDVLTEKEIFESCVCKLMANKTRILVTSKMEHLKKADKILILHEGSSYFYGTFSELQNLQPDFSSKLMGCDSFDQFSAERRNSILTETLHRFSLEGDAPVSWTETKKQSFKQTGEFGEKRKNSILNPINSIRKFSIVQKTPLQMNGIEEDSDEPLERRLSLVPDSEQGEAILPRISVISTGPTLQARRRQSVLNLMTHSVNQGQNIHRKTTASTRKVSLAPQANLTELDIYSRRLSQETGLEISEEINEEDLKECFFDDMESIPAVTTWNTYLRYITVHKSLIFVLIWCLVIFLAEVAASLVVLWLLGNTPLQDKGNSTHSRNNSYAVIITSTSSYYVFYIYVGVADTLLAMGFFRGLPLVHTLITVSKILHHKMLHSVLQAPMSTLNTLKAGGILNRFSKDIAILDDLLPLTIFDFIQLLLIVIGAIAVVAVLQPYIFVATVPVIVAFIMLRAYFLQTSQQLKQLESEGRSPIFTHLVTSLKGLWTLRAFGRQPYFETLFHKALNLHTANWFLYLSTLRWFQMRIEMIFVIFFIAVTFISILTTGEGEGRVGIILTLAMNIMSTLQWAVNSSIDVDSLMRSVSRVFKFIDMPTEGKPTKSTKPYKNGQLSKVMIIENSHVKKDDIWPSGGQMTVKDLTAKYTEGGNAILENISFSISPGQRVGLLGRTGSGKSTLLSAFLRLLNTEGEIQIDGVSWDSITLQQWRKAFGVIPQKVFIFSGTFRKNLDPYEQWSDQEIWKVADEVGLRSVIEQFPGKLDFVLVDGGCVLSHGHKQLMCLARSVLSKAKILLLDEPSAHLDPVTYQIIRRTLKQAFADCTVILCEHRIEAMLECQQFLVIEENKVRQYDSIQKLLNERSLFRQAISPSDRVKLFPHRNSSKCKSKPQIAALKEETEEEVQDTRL
- procedure_details: 125I radioactive iodide efflux in CHO-CFTR(+) cells
- Format: cell-based
- Parameters: expressed in transfected cells; host or cells: CHO (Chinese hamster ovary) cells, CHO-CFTR(+)
- measurement_context: EC50 of activation of CFTR (125I efflux rate constant), CHO-CFTR(+) cells, octan-1-ol 0.1 to 5 mM
- Procedure: The cells are cultured in 24-well plates with a dilution to 1/10 after passage. […] The operation is repeated every 30 s for 2 to 6 min. […] All the samples are counted in a gamma counter (Kontron). The precipitated proteins are solubilized in 0.1N NaOH and quantified using a calorimetric test. The tracer contained in the cell layer at the beginning of the efflux is calculated as the sum of the samples and of the extracts counted. […]
pEC50: −log10 of the molar value.

{"columns": ["line_notation", "pEC50"],
 "data": [
  ["CCCCCCCCO", "~3.30"]
]}
